study-system: MtbFolB (Mycobacterium tuberculosis, UniProt P9WNC5)
Sequence (P9WNC5 whole entry): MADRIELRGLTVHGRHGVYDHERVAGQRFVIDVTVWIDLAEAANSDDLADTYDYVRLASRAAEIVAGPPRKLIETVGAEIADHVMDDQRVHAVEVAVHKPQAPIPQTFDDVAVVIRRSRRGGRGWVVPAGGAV
assay-notes: end-point fluorescence assay
Assay type: biochemical
Please note: IC50 exactly at 10 µM is 0. Only values below 10 µM get 1.

compound: O=C(CCC(=O)c1ccc(-c2ccccc2)cc1)Nc1nncs1
category: 1

compound: O=S(=O)(Nc1ccc(N2CCCCC2)cc1)c1ccc(Br)s1
category: 0

compound: O=S(=O)(Nc1ccc(-n2ccnc2)cc1)c1ccc(Br)s1
category: 0

compound: O=S(=O)(Nc1ccc(N2CCN(S(=O)(=O)c3ccc(Br)s3)CC2)cc1)c1ccc(Br)s1
category: 0

compound: Cc1ccc(-n2c(=O)cc(C)n2C(=O)C(C)Oc2ccccc2)cc1C (stereo not drawn)
category: 0

compound: Cc1cc(=O)n(-c2ccccc2)n1C(=O)c1ccc(Cl)cc1
category: 0

compound: CN(C)c1ccc(NS(=O)(=O)c2cnn(C)c2)cc1
category: 1

compound: CCc1cc(N2CCC[C@@H](O)C2)ccc1NS(=O)(=O)c1ccc(Br)s1
category: 0

compound: Cc1cc(=O)n(-c2ccccc2)n1C(=O)C(C)Oc1ccccc1 (stereo not drawn)
category: 0

====

study-system: MtbFolB (Mycobacterium tuberculosis, UniProt P9WNC5)
assay-notes: biochemical
pIC50: −log10 of the molar value.
Here, each record is paired with measured pIC50 data.
readout-label: pIC50

molecule: Cc1ccc(-n2c(=O)cc(C)n2C(=O)Cc2cccs2)cc1C
result-value: 3.36
--
molecule: Cc1cc(=O)n(-c2ccccc2)n1C(=O)C(C)Oc1ccccc1 (stereo not shown)
result-value: 3.44
--
molecule: Cc1ccc(-n2c(=O)cc(C)n2C(=O)C(C)Oc2ccccc2)cc1C (stereo not shown)
result-value: 3.76
--
molecule: Cc1cc(=O)n(-c2ccccc2)n1C(=O)Cc1cccs1
result-value: 3.60

====

Here, each record is paired with measured IC50 data.
study-system: MtbFolB (Mycobacterium tuberculosis, UniProt P9WNC5)
assay-notes: end-point fluorescence assay
Type: biochemical
readout-label: IC50

compound: CN(C)c1ccc(NS(=O)(=O)c2ccc3ccn(C)c3c2)cc1 [compound 24, 24]
result-value: > 100 µM

compound: O=S(=O)(NCc1ccc(N2CCC(c3ccc(OC(F)(F)F)cc3)CC2)cc1)c1ccc(Br)s1 [compound 38, 38]
result-value: > 100 µM

compound: Cc1cc(=O)n(-c2ccccc2)n1C(=O)Cc1cccs1 [compound 3, 3]
result-value: 30.1 µM

compound: CC(=O)Nc1ccc(NS(=O)(=O)c2ccc(Br)s2)cc1 [compound 34, 34]
result-value: > 100 µM

compound: Cc1noc(C)c1S(=O)(=O)Nc1ccc(N(C)C)cc1 [compound 27, 27]
result-value: 9.2 µM

compound: O=C(Nc1nc2ccccc2n1Cc1ccc(F)cc1)C1CCC(F)(F)CC1 [compound 14, 14]
result-value: 17.2 µM

compound: CC(C)c1ccc(C(C)NS(=O)(=O)c2ccc(Br)s2)cc1 (centres unmarked) [compound 37, 37]
result-value: > 100 µM

compound: CN(C)c1ccc(NS(=O)(=O)c2ccc(-c3ccc(C(F)(F)F)cc3)cc2)cc1 [compound 29, 29]
result-value: > 100 µM

====

Here, each record is paired with measured inhibition at 20 µM data.
study-system: MtbFolB (Mycobacterium tuberculosis, UniProt P9WNC5)
assay-notes: biochemical
settings: read-out: % inhibition

molecule: Cc1ccc(-n2c(=O)cc(C)n2C(=O)Cc2cccs2)cc1C [compound 9, 9]
inhibition at 20 µM: 40.8%
--
molecule: COc1ccc(CC(=O)n2c(C)cc(=O)n2-c2ccccc2)cc1 [compound 16, 16]
inhibition at 20 µM: 35.1%
--
molecule: O=C(Nc1nc2ccccc2n1Cc1ccc(F)cc1)C1CCC(F)(F)CC1 [compound 14]
inhibition at 20 µM: 36.6%
--
molecule: Cc1cc(=O)n(-c2ccccc2)n1C(=O)Cc1cccs1 [compound 3, 3]
inhibition at 20 µM: 52.5%
--
molecule: Cc1ccc(-n2c(=O)cc(C)n2C(=O)C(C)Oc2ccccc2)cc1C (centres unmarked) [compound 22, 22]
inhibition at 20 µM: 29.2%
--
molecule: Cc1cc(=O)n(-c2ccccc2)n1C(=O)C(C)Oc1ccccc1 (centres unmarked) [compound 20, 20]
inhibition at 20 µM: 29.9%
--
molecule: O=C(CCC(=O)c1ccc(-c2ccccc2)cc1)Nc1nncs1 [compound 2]
inhibition at 20 µM: 53.2%
--
molecule: Cc1cc(=O)n(-c2ccccc2)n1C(=O)c1ccc(Cl)cc1 [compound 21, 21]
inhibition at 20 µM: 29.8%
